- system-under-test: CDK4 (Homo sapiens)
- Construct: purchased Carna Company
- Sequence (P11802 whole entry): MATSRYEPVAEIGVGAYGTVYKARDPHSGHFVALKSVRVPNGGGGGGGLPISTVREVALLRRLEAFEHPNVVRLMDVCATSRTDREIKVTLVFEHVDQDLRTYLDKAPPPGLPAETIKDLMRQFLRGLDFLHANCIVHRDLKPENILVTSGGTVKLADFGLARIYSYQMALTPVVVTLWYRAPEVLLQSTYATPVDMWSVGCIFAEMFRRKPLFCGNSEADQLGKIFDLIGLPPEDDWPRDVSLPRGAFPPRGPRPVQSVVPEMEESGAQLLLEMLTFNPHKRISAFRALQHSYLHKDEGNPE
- Sequence (P30281 whole entry partner): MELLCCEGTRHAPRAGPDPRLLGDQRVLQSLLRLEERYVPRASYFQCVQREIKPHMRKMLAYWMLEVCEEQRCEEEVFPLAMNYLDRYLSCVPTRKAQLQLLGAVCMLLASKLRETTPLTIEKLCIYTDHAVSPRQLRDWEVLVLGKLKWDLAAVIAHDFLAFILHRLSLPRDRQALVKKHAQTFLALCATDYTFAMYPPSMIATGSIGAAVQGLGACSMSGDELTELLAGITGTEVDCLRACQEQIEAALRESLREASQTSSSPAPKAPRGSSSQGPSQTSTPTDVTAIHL
- protocol-description: CDK enzymology experiment in vitro, capillary mobility shift assay (MSA)
- Type: biochemical
- condition-set: read-out: CDK4 (nM) inhibitory IC50
measured-parameter: IC50

>>> df
                                   compound  value_measured
0  Cn1cc(S(=O)(=O)N2CCC(Nc3ncc(C#N)c(N[C@H]4CC[C@@H](O)C4)n3)CC2)cn1 (single isomer, unassigned) [Example 12]     10 to 50 nM
1  O=S(=O)(c1cnn(C2CCOCC2)c1)N1CCC(Nc2ncc(C(F)(F)F)c(O[C@H]3CCOC3)n2)CC1    2.5 to 10 nM
2  Cn1cc(S(=O)(=O)N2CCC(Nc3ncc(C#N)c(N[C@@H]4CC[C@H](O)C4)n3)CC2)cn1 (single isomer, unassigned)     10 to 50 nM

---

- system-under-test: CDK6 (Homo sapiens, UniProt Q00534)
- Construct: purchased Carna Company
- Sequence (Q00534 whole entry, one chain of several): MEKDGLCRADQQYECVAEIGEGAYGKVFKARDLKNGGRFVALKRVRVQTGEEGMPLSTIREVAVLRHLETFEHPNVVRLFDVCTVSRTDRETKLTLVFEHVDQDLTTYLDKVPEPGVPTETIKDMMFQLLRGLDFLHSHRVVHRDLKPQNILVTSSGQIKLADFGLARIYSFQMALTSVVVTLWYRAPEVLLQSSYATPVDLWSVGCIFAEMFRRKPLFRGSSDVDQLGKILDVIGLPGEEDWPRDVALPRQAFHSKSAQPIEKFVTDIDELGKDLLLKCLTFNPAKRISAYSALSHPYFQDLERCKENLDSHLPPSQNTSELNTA
- protocol-description: CDK enzymology experiment in vitro, capillary mobility shift assay (MSA)
- Type: biochemical
- condition-set: read-out: CDK6 (nM) inhibitory IC50
- Description: CDK1/CDK2/CDK4/CDK6/CDK7/CDK9 were purchased from Carna Company; Carliper substrate CTD3/substrate 18/substrate 8 were purchased from Gil Biochemical Company; Dinaciclib/Palbociclib were purchased from Selleckchem Company; DMSO was purchased from Sigma Company; 384-well plates were purchased from Corning Company. […]
# IC50 values compiled below
measured-parameter: IC50

>>> df
                                    compound  value_measured
 0  O=S(=O)(c1ccc(C2CCNCC2)c(F)c1)N1CCC(Nc2ncc(C(F)(F)F)c(O[C@H]3CCOC3)n2)CC1   0.5 to 2.5 nM
 1  N#Cc1cnc(NC2CCN(S(=O)(=O)c3ccc(N4CCOCC4)cc3)CC2)nc1NC1CCCC1     10 to 50 nM
 2  O=S(=O)(c1ccc(N2CC[C@H](O)C2)cc1)N1CCC(Nc2ncc(C(F)(F)F)c(O[C@H]3CCOC3)n2)CC1   0.5 to 2.5 nM
 3  O=S(=O)(c1ccc(N2C3CCC2CNC3)cc1)N1CCC(Nc2ncc(C(F)(F)F)c(O[C@H]3CCOC3)n2)CC1   0.5 to 2.5 nM
 4  Cn1cc(-c2ccc(S(=O)(=O)N3CCC(Nc4ncc(C#N)c(NC5CCCC5)n4)CC3)cc2)cn1   0.5 to 2.5 nM
 5  C[C@@H]1CN(c2ccc(S(=O)(=O)N3CCC(Nc4ncc(C(F)(F)F)c(O[C@H]5CCOC5)n4)CC3)cn2)CCN1   0.5 to 2.5 nM
 6  O=S(=O)(c1ccc(N2CCNC(C(F)(F)F)C2)cc1)N1CCC(Nc2ncc(C(F)(F)F)c(O[C@H]3CCOC3)n2)CC1 (some centres unmarked)   0.5 to 2.5 nM
 7  N#CC1CCN(c2ccc(S(=O)(=O)N3CCC(Nc4ncc(C(F)(F)F)c(O[C@H]5CCOC5)n4)CC3)cc2)CC1     10 to 50 nM
 8  O=S(=O)(c1ccc(N2CCNC(C(F)(F)F)C2)nc1)N1CCC(Nc2ncc(C(F)(F)F)c(O[C@H]3CCOC3)n2)CC1 (some centres unmarked)   0.5 to 2.5 nM
 9  O=S(=O)(c1ccc(C2CNC2)c(F)c1)N1CCC(Nc2ncc(C(F)(F)F)c(O[C@H]3CCOC3)n2)CC1   0.5 to 2.5 nM
10  O=S(=O)(c1ccc(N2CC3CNCC3C2)nc1)N1CCC(Nc2ncc(C(F)(F)F)c(O[C@H]3CCOC3)n2)CC1 (some centres unmarked)   0.5 to 2.5 nM
11  Cc1nnc(-c2ccc(S(=O)(=O)N3CCC(Nc4ncc(C(F)(F)F)c(O[C@H]5CCOC5)n4)CC3)cc2)o1   0.5 to 2.5 nM
12  CN1CCC(c2ccc(S(=O)(=O)N3CCC(Nc4ncc(C#N)c(NC5CCCC5)n4)CC3)cc2)CC1   0.5 to 2.5 nM
13  CS(=O)(=O)N1CCC(Nc2ncc(C(F)(F)F)c(NC3CCCC3)n2)CC1     10 to 50 nM

Values from patent US20250009745A1
